# experimental system: progesterone receptor (PR) (Homo sapiens)
# Construct: Effects of Progestins and Antiprogestins on Alkaline Phosphatase Activity in T47D Cells; endogenous in cells; host or cells: T47D cells
# method description: T47D cell alkaline phosphatase assay (antagonist mode)
# Format: cell-based
# condition: T47D cells, antagonist mode in the presence of 1 nM progesterone, 24 hours; read-out: IC50 (nM), T47D Cell Alkaline Phosphatase Assay
# Description: A. Effects of Progestins and Antiprogestins on Alkaline Phosphatase Activity in T47D Cells (T47D Alkaline Phosphatase Assay) […] For reference and test compounds, a dose response curve is generated for dose vs. the rate of enzyme reaction (slope). […] EC50 or IC50 values are calculated from the retransformed values. […]
reported metric: IC50 (nM)

Study these solved cases before continuing.
C=CCN1C(=O)C(C)(C)c2cc(-c3ccc(C#N)n3C)cc(F)c21 : 4.5
CCCN1C(=O)C(C)(C)c2cc(-c3ccc(C#N)n3C)cc(F)c21 : 26.5

I. CC(C)(C)OC(=O)n1c(C#N)ccc1-c1cc(F)c2c(c1)C(C)(C)C(=O)N2
II. Cn1c(C#N)ccc1-c1cc(F)c2c(c1)C(C)(C)C(=O)N2C1CCCCC1
Q) Which entry shows the lesser value of IC50 here, I or II ? Refer to your chosen item by its label in the answer.
A) I

---

# experimental system: progesterone receptor (PR) (Homo sapiens, UniProt P06401)
# Construct: Effects of Progestins and Antiprogestins on Alkaline Phosphatase Activity in T47D Cells; endogenous in cells; host or cells: T47D cells
# Sequence (P06401 1-933): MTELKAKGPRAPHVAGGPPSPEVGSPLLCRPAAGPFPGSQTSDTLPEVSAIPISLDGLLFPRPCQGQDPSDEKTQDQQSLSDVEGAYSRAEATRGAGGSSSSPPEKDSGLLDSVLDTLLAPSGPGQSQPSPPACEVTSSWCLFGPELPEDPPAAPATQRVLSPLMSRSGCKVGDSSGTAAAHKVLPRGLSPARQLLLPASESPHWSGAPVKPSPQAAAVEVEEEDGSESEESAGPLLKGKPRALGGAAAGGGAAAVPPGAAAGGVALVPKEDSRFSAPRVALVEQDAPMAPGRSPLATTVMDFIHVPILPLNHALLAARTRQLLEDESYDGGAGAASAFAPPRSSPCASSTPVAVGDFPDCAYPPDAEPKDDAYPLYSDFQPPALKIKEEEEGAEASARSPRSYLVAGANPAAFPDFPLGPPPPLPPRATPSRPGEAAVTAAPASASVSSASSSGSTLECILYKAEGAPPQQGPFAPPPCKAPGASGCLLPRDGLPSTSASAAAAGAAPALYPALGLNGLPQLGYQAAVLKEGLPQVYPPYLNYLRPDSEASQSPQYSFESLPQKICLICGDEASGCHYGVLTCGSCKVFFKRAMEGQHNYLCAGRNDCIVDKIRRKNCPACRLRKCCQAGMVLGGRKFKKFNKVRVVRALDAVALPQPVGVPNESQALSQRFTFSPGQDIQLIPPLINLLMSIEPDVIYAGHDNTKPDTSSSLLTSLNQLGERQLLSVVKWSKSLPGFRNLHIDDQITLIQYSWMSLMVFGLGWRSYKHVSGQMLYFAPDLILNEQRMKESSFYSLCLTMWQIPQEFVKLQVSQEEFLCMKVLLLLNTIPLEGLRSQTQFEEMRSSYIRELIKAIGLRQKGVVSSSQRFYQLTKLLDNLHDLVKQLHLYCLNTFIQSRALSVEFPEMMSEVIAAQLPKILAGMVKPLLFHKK
# method description: T47D cell alkaline phosphatase assay (antagonist mode)
# Format: cell-based
# condition: T47D cells, antagonist mode in the presence of 1 nM progesterone, 24 hours; read-out: IC50 (nM), T47D Cell Alkaline Phosphatase Assay
reported metric: IC50 (nM)

Cn1c(C#N)ccc1-c1cc(F)c2c(c1)C(C)(C)C(=O)N2CCc1ccccc1 : 351

P. C#CCN1C(=O)C(C)(C)c2cc(-c3ccc(C#N)n3C)cc(F)c21
Q. Cn1c(C#N)ccc1-c1cc(F)c2c(c1)C1(CC1)C(=O)N2
Q) Consider entries P and Q . Which has the numerically lower IC50? // caller expects the label of the chosen entry
A) Q

P. CN1C(=O)C(C)(C)c2cc(-c3ccc(C#N)n3C)cc(F)c21
Q. COC(=O)CN1C(=O)C(C)(C)c2cc(-c3ccc(C#N)n3C)cc(F)c21
R. CC(C)N1C(=O)C(C)(C)c2cc(-c3ccc(C#N)n3C)cc(F)c21
S. Cn1c(C#N)ccc1-c1cc(F)c2c(c1)C(C)(C)C(=O)N2Cc1ccccc1
T. Cn1c(C#N)ccc1-c1cc(F)c2c(c1)C1(CCC1)C(=O)N2
Q) Sort the 5 compounds by IC50; largest first, smallest last. I'd appreciate it if you listed the labels in the requested order.
A) S, Q, P, R, T
(S: 164 nM, Q: 48 nM, P: 22.3 nM, R: 13 nM, T: 2.75 nM)

P. Cn1c(C#N)ccc1-c1ccc2c(c1F)C1(CC1)C(=O)N2
Q. CC(C)CN1C(=O)C(C)(C)c2cc(-c3ccc(C#N)n3C)cc(F)c21
Q) Which gives the smaller IC50 number: P or Q ? Answer by quoting the chosen item's label.
A) P
(P: 7.8 nM, Q: 29.9 nM)

---

# method description: Cynomolgus monkey intravenous pharmacokinetics
# condition: in vivo, cynomolgus monkeys, 0.25 mg/kg i.v., read-out: exposure (AUC0-∞)
reported metric: AUC(0-inf) (ng·h/mL)

P. Cn1c(C#N)ccc1-c1ccc2c(c1)C(C)(C)C(=O)N2 [reference compound]
Q. Cn1c(C#N)ccc1-c1cc(F)c2c(c1)C(C)(C)C(=O)N2
Q) Which record shows the lower AUC(0-inf): the first, P , or the second, Q ? Lab log: write the label of the selected item as the result.
A) P
(P: 343 ng·h/mL, Q: 578 ng·h/mL)

---

# method description: Cynomolgus monkey intravenous pharmacokinetics
# condition: in vivo, cynomolgus monkeys, 0.25 mg/kg i.v., read-out: mean half life (t1/2) (converted)
reported metric: half-life (h)

A. Cn1c(C#N)ccc1-c1cc(F)c2c(c1)C(C)(C)C(=O)N2
B. Cn1c(C#N)ccc1-c1ccc2c(c1)C(C)(C)C(=O)N2 [reference compound]
Q) Field: entry with larger half-life (options A / B ). Kindly state the label of the option you pick.
A) A
(A: 8.8 h, B: 2.1 h)

---

# experimental system: progesterone receptor (PR) (Homo sapiens, UniProt P06401)
# Construct: Effects of Progestins and Antiprogestins on Alkaline Phosphatase Activity in T47D Cells; endogenous in cells; host or cells: T47D cells
# Sequence (P06401 1-933): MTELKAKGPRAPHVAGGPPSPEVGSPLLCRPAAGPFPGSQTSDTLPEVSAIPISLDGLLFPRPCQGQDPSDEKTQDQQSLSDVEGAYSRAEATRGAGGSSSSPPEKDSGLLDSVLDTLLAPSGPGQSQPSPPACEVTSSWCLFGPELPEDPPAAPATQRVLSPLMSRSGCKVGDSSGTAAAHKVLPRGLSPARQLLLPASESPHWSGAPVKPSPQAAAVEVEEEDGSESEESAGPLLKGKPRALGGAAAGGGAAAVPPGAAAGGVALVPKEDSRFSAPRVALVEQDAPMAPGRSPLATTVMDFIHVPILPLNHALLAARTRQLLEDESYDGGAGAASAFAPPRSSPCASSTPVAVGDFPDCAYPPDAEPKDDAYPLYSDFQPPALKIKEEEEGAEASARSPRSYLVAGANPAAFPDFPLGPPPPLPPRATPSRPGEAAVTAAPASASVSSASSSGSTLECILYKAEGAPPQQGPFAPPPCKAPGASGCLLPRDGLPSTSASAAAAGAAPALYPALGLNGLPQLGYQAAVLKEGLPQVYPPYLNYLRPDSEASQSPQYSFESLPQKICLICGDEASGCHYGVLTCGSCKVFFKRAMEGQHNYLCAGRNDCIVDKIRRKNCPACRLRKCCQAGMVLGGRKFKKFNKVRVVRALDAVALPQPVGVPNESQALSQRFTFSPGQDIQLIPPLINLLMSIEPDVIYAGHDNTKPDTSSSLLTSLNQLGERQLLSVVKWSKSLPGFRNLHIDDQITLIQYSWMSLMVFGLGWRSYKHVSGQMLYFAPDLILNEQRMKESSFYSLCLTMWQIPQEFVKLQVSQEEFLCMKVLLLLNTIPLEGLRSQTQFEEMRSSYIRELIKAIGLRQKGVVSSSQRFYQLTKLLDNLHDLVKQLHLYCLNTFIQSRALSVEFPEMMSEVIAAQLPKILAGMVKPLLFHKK
# method description: T47D cell alkaline phosphatase assay (antagonist mode)
# Assay type: cell-based
# condition: T47D cells, antagonist mode in the presence of 1 nM progesterone, 24 hours; read-out: IC50 (nM), T47D Cell Alkaline Phosphatase Assay
reported metric: IC50 (nM)

Consider the worked cases shown below.
Cn1c(C#N)ccc1-c1cc(F)c2c(c1)C(C)(C)C(=O)N2C1CCCC1 : 25.2
Cn1c(C#N)ccc1-c1cc(F)c2c(c1)C(C)(C)C(=O)N2 : 5.4
Cn1c(C#N)ccc1-c1ccc2c(c1F)C(C)(C)C(=O)N2 : 30

1. Cn1c(C#N)ccc1-c1cc(F)c2c(c1)CC(=O)N2
2. Cn1c(C#N)ccc1-c1cc(F)c2c(c1)C1(CCCC1)C(=O)N2
3. CCN1C(=O)C(C)(C)c2cc(-c3ccc(C#N)n3C)cc(F)c21
Q) Ranking field: IC50; order: falling. Give the order by naming the labels one after another as requested.
A) 1, 3, 2
